measured target: human recombinant FAAH (Homo sapiens)
Sequence (O00519 1-579): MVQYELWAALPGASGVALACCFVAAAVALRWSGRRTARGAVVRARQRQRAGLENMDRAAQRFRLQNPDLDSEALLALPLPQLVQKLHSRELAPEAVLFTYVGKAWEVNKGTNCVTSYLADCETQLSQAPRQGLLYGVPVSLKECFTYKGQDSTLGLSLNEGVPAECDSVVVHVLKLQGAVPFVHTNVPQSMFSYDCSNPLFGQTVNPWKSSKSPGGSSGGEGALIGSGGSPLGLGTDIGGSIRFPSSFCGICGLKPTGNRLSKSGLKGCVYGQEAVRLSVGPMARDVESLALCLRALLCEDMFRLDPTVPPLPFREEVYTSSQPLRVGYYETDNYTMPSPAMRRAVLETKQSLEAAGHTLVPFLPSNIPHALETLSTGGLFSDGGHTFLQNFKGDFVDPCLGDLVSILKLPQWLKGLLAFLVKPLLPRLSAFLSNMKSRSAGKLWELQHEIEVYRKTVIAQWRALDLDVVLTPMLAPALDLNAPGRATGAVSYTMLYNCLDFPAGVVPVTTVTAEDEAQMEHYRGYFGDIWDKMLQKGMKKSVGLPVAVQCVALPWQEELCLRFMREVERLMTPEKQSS
procedure details: FAAH inhibition enzymatic assay, fluorescent substrate Arachidonoyl-AMC, 30 minute incubation
settings: T = 30 min (30 minute incubation); geometric mean of 2-4 determinations unless otherwise indicated
pIC50: −log10 of the molar value.
Please go through the items and note down their pIC50.

## Input Provide the documented pIC50 with human recombinant FAAH (Homo sapiens) as the system for CN([C@@H]1COC2(CCN(C(=O)O[C@H](CO)C(F)(F)F)CC2)C1)S(=O)(=O)C1CC1
## Output < 4.52

## Input Query the reported pIC50 for human recombinant FAAH (Homo sapiens); item: CN(CC1CCN(C(=O)O[C@H](CO)C(F)(F)F)CC1)S(=O)(=O)c1ccc(F)cc1
## Output < 4.52

## Input Which pIC50 is reported with human recombinant FAAH (Homo sapiens) for this entry: O=C(O[C@@H]([C@@H](O)C(F)(F)F)C(F)(F)F)N1C[C@@H]2[C@H](C1)[C@H]2c1ccn(-c2ccc(F)cc2)n1 (racemic) ?
## Output 4.88

## Input Report pIC50 for O=C(O[C@H](CO)C(F)(F)F)N1CCC2(CC1)CC(c1ccccc1)CO2 (single isomer, unassigned) [Example 96] tested on human recombinant FAAH (Homo sapiens).
## Output 5.02

## Input Enter reported pIC50 observed with human recombinant FAAH (Homo sapiens) for CN([C@H]1COC2(CCN(C(=O)O[C@H](CO)C(F)(F)F)CC2)C1)S(=O)(=O)CC1CCC1
## Output < 4.52

## Input Lookup: pIC50 / human recombinant FAAH (Homo sapiens) / O=C(OC(C(F)(F)F)C(F)(F)CO)N1CCC2(CC1)CN(S(=O)(=O)c1ccc(F)cc1)CCO2 (single isomer, unassigned; ent-1) [Example 20]
## Output < 4.52

## Input pIC50 of O=C(O[C@H](CO)C(F)(F)F)N1CCC(CNS(=O)(=O)c2ccc(F)cc2)CC1 on human recombinant FAAH (Homo sapiens)?
## Output < 4.52

## Input GET /values?readout=pIC50&system=human recombinant FAAH (Homo sapiens)&item= CN([C@H]1COC2(CCN(C(=O)O[C@H](CO)C(F)(F)F)CC2)C1)S(=O)(=O)c1nccs1
## Output < 4.52

## Input Request body: readout pIC50, system human recombinant FAAH (Homo sapiens), query Cc1cc(S(=O)(=O)N2CCOC3(CCN(C(=O)O[C@H](CO)C(F)(F)F)CC3)C2)ccc1F . Return the value.
## Output < 4.52

----------
measured target: human recombinant Monoacylglycerol Lipase (Homo sapiens)
procedure details: MAGL inhibition enzymatic assay, fluorogenic substrate 7-HCA, IC50 at T=0 min or after 30 minute incubation (T=30 min)
Assay type: biochemical
settings: T = 30 min (30 minute incubation); geometric mean of 2-4 determinations unless otherwise indicated; read-out: MAGL (T = 30 min) IC50
Hi there, I'd appreciate the recorded IC50 for every entry that follows.
Respond numerically; units are nM and should not be typed.

## Input What value of IC50 has been reported for the following molecule? Cc1cnc(OC2CCN(C(=O)O[C@H](CO)C(F)(F)F)CC2)c(C)c1 [Example 61]
## Output 5

## Input Record request: IC50 value, item O=C(O[C@H](CO)C(F)(F)F)N1CCC2(CC1)CN(S(=O)(=O)c1ccccc1)CCO2 [Example 7]
## Output 3

## Input Look up IC50 for this molecule: O=C(O[C@H](CO)C(F)(F)F)N1CCC2(CC1)CN(CC1CCCOC1)CCO2 (single isomer, unassigned) [Example 4]
## Output 19

## Input Which IC50 value is on record for O=C(O[C@H](CO)C(F)(F)F)N1CCC2(CC1)CN(S(=O)(=O)c1cccc(F)c1)CCO2 [Example 11] ?
## Output 1

## Input Requested read-out: IC50. Entry: O=C(O[C@H](CO)C(F)(F)F)N1CCC2(CC1)CN(c1ccc(F)cn1)CCO2 [Example 14]
## Output 45

## Input Look up IC50 for this molecule: O=C(O[C@H](CO)C(F)(F)F)N1CCC2(CC1)CN(S(=O)(=O)c1ccc(F)cc1)C(O)CO2 (mixture of isomers) [Example 29]
## Output 24

## Input # lookup: IC50 of CN(C(=O)c1ccccc1)C1COC2(CCN(C(=O)O[C@H](CO)C(F)(F)F)CC2)C1 (single isomer, unassigned) [Example 100]
## Output 10

## Input Given O=C(O[C@H](CO)C(F)(F)F)N1CCC2(CC1)C[C@@H](NS(=O)(=O)c1ccccc1)CO2 [Example 9] , state its recorded IC50.
## Output 4

----------
measured target: human recombinant Monoacylglycerol Lipase (Homo sapiens)
Sequence (Q99685 1-303): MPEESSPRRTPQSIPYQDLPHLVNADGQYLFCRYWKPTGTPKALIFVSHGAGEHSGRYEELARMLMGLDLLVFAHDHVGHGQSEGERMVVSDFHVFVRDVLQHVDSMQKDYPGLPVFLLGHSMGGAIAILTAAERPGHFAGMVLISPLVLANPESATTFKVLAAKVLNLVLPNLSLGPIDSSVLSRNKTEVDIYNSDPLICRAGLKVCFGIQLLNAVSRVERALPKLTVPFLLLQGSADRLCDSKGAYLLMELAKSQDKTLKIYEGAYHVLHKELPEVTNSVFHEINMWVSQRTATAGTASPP
procedure details: MAGL inhibition enzymatic assay, fluorogenic substrate 7-HCA, IC50 at T=0 min or after 30 minute incubation (T=30 min)
Format: biochemical
settings: T = 0 min (substrate added immediately); geometric mean of 2-4 determinations unless otherwise indicated; read-out: MAGL (T = 0 min) IC50
assay endpoint: pIC50
Please note pIC50 is a logarithmic value: minus log10 of concentration in mol/L. Answer with that number alone.

## Input Return pIC50 measured with human recombinant Monoacylglycerol Lipase (Homo sapiens) given this compound: O=C(O[C@H](CO)C(F)(F)F)N1CCC2(CC1)CCN(C(=O)c1ccccc1F)C2
## Output 7.15

## Input Hi! What's the reported pIC50 for O=C(O[C@H](CO)C(F)(F)F)N1CCC2(CC1)CC(Oc1ccccn1)CO2 (single isomer, unassigned) [Example 130] on human recombinant Monoacylglycerol Lipase (Homo sapiens)?
## Output 7.12

## Input Entry CN([C@H]1COC2(CCN(C(=O)O[C@H](CO)C(F)(F)F)CC2)C1)S(=O)(=O)CC1CCC1 , system human recombinant Monoacylglycerol Lipase (Homo sapiens): what pIC50 was measured?
## Output 7.03

## Input Quick check: pIC50 on human recombinant Monoacylglycerol Lipase (Homo sapiens), item COc1ccc(C2COC3(CCN(C(=O)O[C@H](CO)C(F)(F)F)CC3)C2)nc1 (mixture of isomers) ?
## Output 6.83

## Input Item O=C(O[C@H](CO)C(F)(F)F)N1CCC(CNS(=O)(=O)c2ccc(F)cc2)CC1 with human recombinant Monoacylglycerol Lipase (Homo sapiens) - pIC50?
## Output 6.76

## Input // lookup pIC50 | system=human recombinant Monoacylglycerol Lipase (Homo sapiens) | key= Cc1cnc(OC2CCN(C(=O)O[C@H](CO)C(F)(F)F)CC2)nc1-c1ccnn1C
## Output 6.60

## Input Find the measured pIC50: item CN(C1COC2(CCN(C(=O)O[C@H](CO)C(F)(F)F)CC2)C1)S(=O)(=O)C1CCOCC1 (single isomer, unassigned) [Example 116] , target or system human recombinant Monoacylglycerol Lipase (Homo sapiens).
## Output 6.01

## Input Could you share what pIC50 was measured for CN(C(=O)CC1CCC1)[C@H]1COC2(CCN(C(=O)O[C@H](CO)C(F)(F)F)CC2)C1 , tested on human recombinant Monoacylglycerol Lipase (Homo sapiens)?
## Output 7.02

## Input Requested read-out pIC50, target or system human recombinant Monoacylglycerol Lipase (Homo sapiens), entry O=C(O[C@H](CO)C(F)(F)F)N1CCC2(CC1)CN(S(=O)(=O)c1ccc(F)cc1)C(O)CO2 (mixture of isomers)
## Output 6.96

## Input Field: pIC50 (human recombinant Monoacylglycerol Lipase (Homo sapiens)). Entry: O=C(O[C@H](CO)C(F)(F)F)N1CCC2(CC1)CCN(C(=O)C1CCCC1)C2
## Output 7.04

## Input Quick check: pIC50 on human recombinant Monoacylglycerol Lipase (Homo sapiens), item Cc1ccc(S(=O)(=O)N2CCOC3(CCN(C(=O)O[C@H](CO)C(F)(F)F)CC3)C2)cc1Cl ?
## Output 7.82

## Input Field: pIC50 (human recombinant Monoacylglycerol Lipase (Homo sapiens)). Entry: O=C(O[C@H](CO)C(F)(F)F)N1CCC2(CC1)CN(S(=O)(=O)CCc1ccccn1)CCO2
## Output 6.35

## Input Entry Cn1nccc1-c1cccc(OC2CCN(C(=O)O[C@H](CO)C(F)(F)F)CC2)n1 , system human recombinant Monoacylglycerol Lipase (Homo sapiens): what pIC50 was measured?
## Output 6.44

## Input Checklist item: pIC50 tested on human recombinant Monoacylglycerol Lipase (Homo sapiens), entry CC(c1ccc(F)cc1)N1CCOC2(CCN(C(=O)O[C@H](CO)C(F)(F)F)CC2)C1 (mixture of isomers) [Example 43] , value?
## Output 6.84

## Input human recombinant Monoacylglycerol Lipase (Homo sapiens) / pIC50 / O=C(O[C@H](CO)C(F)(F)F)N1CCC2(CC1)CCN(C(=O)c1ccccn1)C2 : value?
## Output 6.37
